Give measured T/C for each item. Keep answers brief.
# Test system: BDF1 mice, P388 leukemia ip, median survival T/C
# protocol: NCI In Vivo Anticancer Drug Screen. Data for tumor model P388 Leukemia (intraperitoneal) in B6D2F1 (BDF1) mice
# conditionInfo: endpoint: median survival time; dose: 400.0 mg/kg/injection; schedule: Q04DX003 (ip); vehicle: saline with Tween-80; higher = longer survival
Toxic doses and inconclusive results are not listed.

Field: example entries. Status: answers known.
- molecule: "CC1OC(Oc2c(-c3ccc(O)c(O)c3)oc3cc(O)cc(O)c3c2=O)C(O)C(O)C1O (stereo unspecified)"
  measuredAttribute: "T/C"
  result: "104 % of control"
- molecule: "c1ccc(Nc2n[n+](-c3ccccc3)no2)cc1"
  measuredAttribute: "T/C"
  result: "102 % of control"
- molecule: "O=C(c1cccnc1)C1Cc2ccccc2C1=O (stereo unspecified)"
  measuredAttribute: "T/C"
  result: "104 % of control"
- molecule: "CCOC(=O)CCc1nc(C(=O)OCC)c(C)c2nnnn12"
  measuredAttribute: "T/C"
  result: "95 % of control"
- molecule: "O=C(CC(O)(C(F)(F)F)C(F)(F)F)c1ccccc1Cl"
  measuredAttribute: "T/C"
  result: "120 % of control"

Lab note: next molecule to report on.
Enquiry: Entry CN(C)c1ccc(C=Nc2c(N)n(C)c(=O)n(C)c2=O)cc1 , system BDF1 mice, P388 leukemia ip, median survival T/C: what T/C was measured?
Return: 93 % of control

Sourced from PubChem BioAssay AID328
